# Test System: UniProt P06276
# Experiment Description: biochemical
# Conditions Used: 10^–7 M
Quantity Measured: inhibition at 0.1 µM (%)
// return numeric value only (unit: %, not printed)

// below: answered compounds
compound="COc1ccc2c(c1)C/C(=C\\c1ccc(NC(=O)CN(C)CCN(C)C)cc1)C2=O [D34]" quantity_measured="inhibition at 0.1 µM" result_number=49.7
compound="COc1ccc2c(c1)C(=O)/C(=C/c1ccc(NC(=O)CN(C)CCN(C)C)cc1)C2 [D35]" quantity_measured="inhibition at 0.1 µM" result_number=54.9
compound="COc1cc2c(cc1OC)C(=O)/C(=C/c1ccc(NC(=O)CN(C)CCCN(C)C)cc1)C2 [D39]" quantity_measured="inhibition at 0.1 µM" result_number=55.4
compound="COc1ccc2c(c1)C(=O)/C(=C/c1ccc(NC(=O)CN(C)CCCN(C)C)cc1)C2 [D38]" quantity_measured="inhibition at 0.1 µM" result_number=58.7

Kindly consider the entry below.
Query: Return inhibition at 0.1 µM (reported value) for this compound: COc1ccc2c(c1)C/C(=C\c1ccc(NC(=O)CN(C)CCCN(C)C)cc1)C2=O [D37]
Result: 59.3

---

# Test System: BChE (Homo sapiens, UniProt P06276)
# Sequence (P06276 29-602): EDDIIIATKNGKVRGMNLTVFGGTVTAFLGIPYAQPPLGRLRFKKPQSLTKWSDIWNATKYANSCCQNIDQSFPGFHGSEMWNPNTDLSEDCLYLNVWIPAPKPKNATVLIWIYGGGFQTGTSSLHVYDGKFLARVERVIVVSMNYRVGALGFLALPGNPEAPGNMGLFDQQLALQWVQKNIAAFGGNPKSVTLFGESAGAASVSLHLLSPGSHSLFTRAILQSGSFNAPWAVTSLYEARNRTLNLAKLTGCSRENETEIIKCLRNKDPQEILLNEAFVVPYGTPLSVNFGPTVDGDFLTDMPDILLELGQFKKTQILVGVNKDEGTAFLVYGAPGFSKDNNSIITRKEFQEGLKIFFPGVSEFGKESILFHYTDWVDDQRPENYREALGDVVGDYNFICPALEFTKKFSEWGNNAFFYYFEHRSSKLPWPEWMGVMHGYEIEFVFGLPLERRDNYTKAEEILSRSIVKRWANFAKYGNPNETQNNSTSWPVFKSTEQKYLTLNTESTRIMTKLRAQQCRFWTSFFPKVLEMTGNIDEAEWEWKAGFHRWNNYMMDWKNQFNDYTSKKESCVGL
# Experiment Description: biochemical
# Conditions Used: 10^–3 M
Recorded measurements of inhibition at 1000 µM, one per entry
// return numeric value only (unit: %, not printed)

smiles_text=CCN1CCN(CC(=O)Nc2ccc(/C=C3\Cc4ccc(OC)cc4C3=O)cc2)CC1 result_number=55.6

Kindly consider the entry below.
Query: Return inhibition at 1000 µM (reported value) for this molecule: COc1ccc2c(c1)C(=O)/C(=C/c1ccc(NC(=O)CN3CCN(CCN(C)C)CC3)cc1)C2
Result: 99

---

# Test System: MAO-B (Homo sapiens)
# Sequence (P27338 1-520): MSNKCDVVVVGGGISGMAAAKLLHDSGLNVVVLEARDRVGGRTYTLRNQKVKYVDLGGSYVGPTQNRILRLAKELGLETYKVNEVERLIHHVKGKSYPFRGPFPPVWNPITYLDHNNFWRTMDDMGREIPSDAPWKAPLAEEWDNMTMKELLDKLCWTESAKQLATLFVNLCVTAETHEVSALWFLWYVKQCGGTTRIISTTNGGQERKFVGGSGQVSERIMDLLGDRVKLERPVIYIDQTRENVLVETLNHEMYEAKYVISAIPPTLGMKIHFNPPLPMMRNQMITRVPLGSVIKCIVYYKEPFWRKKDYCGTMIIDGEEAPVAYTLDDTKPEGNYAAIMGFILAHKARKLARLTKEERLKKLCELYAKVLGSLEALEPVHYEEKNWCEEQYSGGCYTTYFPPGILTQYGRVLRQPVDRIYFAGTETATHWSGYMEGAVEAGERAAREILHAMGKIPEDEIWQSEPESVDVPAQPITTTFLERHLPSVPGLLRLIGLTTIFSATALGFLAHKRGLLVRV
# Experiment Description: In vitro MAO-B inhibition assay (fluorometric)
# Assay type: biochemical
# Conditions Used: 10^–4 M
Quantity Measured: inhibition at 100 µM
Hey, just the number and the unit after it is fine.

// below: answered compounds
compound=C=CCN1CCN(CC(=O)Nc2ccc(/C=C3\Cc4ccc(OC)cc4C3=O)cc2)CC1 test_system="MAO-B (Homo sapiens)" result=46.2%
compound=C#CCN(C)CC(=O)Nc1ccc(/C=C2\Cc3cc(OC)c(OC)cc3C2=O)cc1 test_system="MAO-B (Homo sapiens)" result=39.3%
compound=COc1ccc2c(c1)C/C(=C\c1ccc(NC(=O)CN3CCN(CCO)CC3)cc1)C2=O test_system="MAO-B (Homo sapiens)" result=42.9%
compound=COc1ccc2c(c1)C(=O)/C(=C/c1ccc(NC(=O)CN(C)CCN(C)C)cc1)C2 test_system="MAO-B (Homo sapiens)" result=42.5%
compound=COc1ccc2c(c1)C/C(=C\c1ccc(NC(=O)CN3CCN(CCN(C)C)CC3)cc1)C2=O test_system="MAO-B (Homo sapiens)" result=48.6%
compound="COc1ccc2c(c1)C/C(=C\\c1ccc(NC(=O)CN3CCN(C)CC3)cc1)C2=O [D1]" test_system="MAO-B (Homo sapiens)" result=38.7%
compound=CCCN(C)CC(=O)Nc1ccc(/C=C2\Cc3cc(OC)c(OC)cc3C2=O)cc1 test_system="MAO-B (Homo sapiens)" result=90.2%
compound=COc1ccc2c(c1)C(=O)/C(=C/c1ccc(NC(=O)CN3CCN(CCCO)CC3)cc1)C2 test_system="MAO-B (Homo sapiens)" result=41.6%

Kindly consider the entry below.
Query: Return inhibition at 100 µM (reported value) for this compound: COc1ccc2c(c1)C(=O)/C(=C/c1ccc(NC(=O)CN3CCN(C)CC3)cc1)C2 [D2]
Result: 45.3%

Taken from paper PMC9774391.
